Consider the following Kd values measured on BCL-2 (Homo sapiens).
Sequence (P10415 whole entry, species assumed): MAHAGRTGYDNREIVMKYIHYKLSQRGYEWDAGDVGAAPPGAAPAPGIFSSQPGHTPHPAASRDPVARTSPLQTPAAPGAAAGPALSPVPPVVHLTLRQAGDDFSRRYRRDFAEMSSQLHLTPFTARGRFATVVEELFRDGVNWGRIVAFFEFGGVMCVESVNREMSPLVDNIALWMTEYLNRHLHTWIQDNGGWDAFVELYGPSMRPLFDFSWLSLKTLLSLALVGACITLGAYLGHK

Some entries whose results are on file:
CCOP(=O)(O)CN1CCN(CC[C@H](CSc2ccccc2)Nc2ccc(S(=O)(=O)NC(=O)c3ccc(N4CCN(Cc5ccccc5-c5ccc(Cl)cc5)CC4)cc3)cc2S(=O)(=O)C(F)(F)F)CC1 | < 1 nM
CCOP(=O)(CN1CCN(CC[C@H](CSc2ccccc2)Nc2ccc(S(=O)(=O)NC(=O)c3ccc(N4CCN(Cc5ccccc5-c5ccc(Cl)cc5)CC4)cc3)cc2S(=O)(=O)C(F)(F)F)CC1)OCC | < 1 nM

Form: Entry = CCOP(=O)(O)CN1CCN(CC[C@H](CSc2ccccc2)N(c2ccc(S(=O)(=O)NC(=O)c3ccc(N4CCN(CC5=C(c6ccc(Cl)cc6)CCC(C)(C)C5)CC4)cc3)cc2S(=O)(=O)C(F)(F)F)S(C)(=O)=O)CC1 | System = BCL-2 (Homo sapiens) | Kd = ____
1 to 10 nM

---

# key: entry, value: Kd
Target: BCL-w (Homo sapiens)
Sequence (Q92843 1-193): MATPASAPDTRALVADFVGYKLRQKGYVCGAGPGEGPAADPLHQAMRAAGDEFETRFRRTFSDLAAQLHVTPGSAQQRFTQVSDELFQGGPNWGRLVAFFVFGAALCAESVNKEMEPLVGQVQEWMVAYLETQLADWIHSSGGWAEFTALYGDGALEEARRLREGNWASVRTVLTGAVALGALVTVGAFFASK

These recorded examples may help you get a feel for the data.
CC1(C)CCC(c2ccc(Cl)cc2)=C(CN2CCN(c3ccc(C(=O)NS(=O)(=O)c4ccc(N[C@H](CCN5CCN(CCCP(=O)(Oc6ccccc6)Oc6ccccc6)CC5)CSc5ccccc5)c(S(=O)(=O)C(F)(F)F)c4)cc3)CC2)C1 [Compound 25] | > 50 nM
CCOP(=O)(CC1CCN(CC[C@H](CSc2ccccc2)Nc2ccc(S(=O)(=O)NC(=O)c3ccc(N4CCN(CC5=C(c6ccc(Cl)cc6)CCC(C)(C)C5)CC4)cc3)cc2S(=O)(=O)C(F)(F)F)CC1)OCOC(=O)C(C)(C)C (stereo partly shown) [Compound 48] | 1 to 10 nM
CCOP(=O)(CN1CCN(CC[C@H](CSc2ccccc2)Nc2ccc(S(=O)(=O)NC(=O)c3ccc(N4CCN(CC5=C(c6ccc(Cl)cc6)CCC(C)(C)C5)CC4)cc3)cc2S(=O)(=O)C(F)(F)F)CC1)OCOC(=O)C(C)(C)C (stereo partly shown) [Compound 28] | 10 to 50 nM

Now look at this one.
What measured Kd goes with CCOP(=O)(CCCN1CCN(CC[C@H](CSc2ccccc2)Nc2ccc(S(=O)(=O)NC(=O)c3ccc(N4CCN(CC5=C(c6ccc(Cl)cc6)CCC(C)(C)C5)CC4)cc3)cc2S(=O)(=O)C(F)(F)F)CC1)OCC [Compound 23] ?
1 to 10 nM

---

pKd: −log10 of the molar value.
The following compounds have recorded pKd on BCL-2 (Homo sapiens).

Some compounds with known pKd results, for comparison:
CCOP(=O)(CN1CCN(CC[C@H](CSc2ccccc2)Nc2ccc(S(=O)(=O)NC(=O)c3ccc(N4CCN(Cc5ccccc5-c5ccc(Cl)cc5)CC4)cc3)cc2S(=O)(=O)C(F)(F)F)CC1)OCOC(=O)OC(C)C (stereo partly drawn) [Compound 56] | > 9.00
CCOP(=O)(CCN(C)CC[C@H](CSc1ccccc1)Nc1ccc(S(=O)(=O)NC(=O)c2ccc(N3CCN(CC4=C(c5ccc(Cl)cc5)CCC(C)(C)C4)CC3)cc2)cc1S(=O)(=O)C(F)(F)F)OCC [Compound 10] | > 9.00

Using the record for CCOP(=O)(CN1CCN(CC(CSc2ccccc2)Nc2ccc(S(=O)(=O)NC(=O)c3ccc(N4CCN(CC5=C(c6ccc(Cl)cc6)CCC(C)(C)C5)CC4)cc3)cc2S(=O)(=O)C(F)(F)F)CC1)OCC (stereo not drawn) [Compound 34] , report its pKd.
> 9.00
